targetSystem: hNurr1_RXRγFL (NURR1/RXRγ heterodimer) (Homo sapiens, UniProt P43354+P48443)
Sequence (P43354 328-598): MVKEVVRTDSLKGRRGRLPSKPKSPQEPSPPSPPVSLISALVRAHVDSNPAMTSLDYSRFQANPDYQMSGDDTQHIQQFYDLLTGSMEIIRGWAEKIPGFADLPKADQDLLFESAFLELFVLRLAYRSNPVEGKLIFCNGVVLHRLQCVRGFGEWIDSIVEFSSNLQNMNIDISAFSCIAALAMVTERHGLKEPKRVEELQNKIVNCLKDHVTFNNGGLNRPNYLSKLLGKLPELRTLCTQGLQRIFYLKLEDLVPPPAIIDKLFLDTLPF
Sequence (P48443 whole entry, the tested form may be a part): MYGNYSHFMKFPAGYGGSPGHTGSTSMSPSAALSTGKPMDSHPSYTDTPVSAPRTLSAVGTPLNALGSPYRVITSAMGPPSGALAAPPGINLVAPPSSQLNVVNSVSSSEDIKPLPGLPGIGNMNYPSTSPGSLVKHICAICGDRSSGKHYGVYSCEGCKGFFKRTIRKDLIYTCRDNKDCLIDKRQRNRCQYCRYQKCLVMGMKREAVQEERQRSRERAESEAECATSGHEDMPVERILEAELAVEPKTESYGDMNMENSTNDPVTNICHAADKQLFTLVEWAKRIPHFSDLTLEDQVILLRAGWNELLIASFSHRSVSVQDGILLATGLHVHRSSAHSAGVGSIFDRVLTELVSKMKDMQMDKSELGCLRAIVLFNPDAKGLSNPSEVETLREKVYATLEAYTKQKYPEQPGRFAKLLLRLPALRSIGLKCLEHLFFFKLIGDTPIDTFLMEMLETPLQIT
assayInfo: Transactivation assay in Cos-7 cells, NURR-1-Gal4 / RXRγ, luciferase reporter
Type: cell-based
details: COS-7, read-out: hNurr1_RXRγFL Eff (%), efficacy in % relative to the reference XCT0135908 at 2·10^−5 M (=100%)
property: Emax (%)
Enter your answer as a number in %; do not include the unit.

input: Which Emax value is on record for CC(C)(C)c1cccc(S(=O)(=O)n2c(Cc3ccc(-c4n[nH]c(=O)o4)cc3)cc3cc(C(F)(F)F)ccc32)c1 ?
output: 70

* * *

targetSystem: hNurr1_RXRαFL (NURR1/RXRα heterodimer) (Homo sapiens, UniProt P19793+P43354)
Sequence (P19793 whole entry, the tested form may be a part): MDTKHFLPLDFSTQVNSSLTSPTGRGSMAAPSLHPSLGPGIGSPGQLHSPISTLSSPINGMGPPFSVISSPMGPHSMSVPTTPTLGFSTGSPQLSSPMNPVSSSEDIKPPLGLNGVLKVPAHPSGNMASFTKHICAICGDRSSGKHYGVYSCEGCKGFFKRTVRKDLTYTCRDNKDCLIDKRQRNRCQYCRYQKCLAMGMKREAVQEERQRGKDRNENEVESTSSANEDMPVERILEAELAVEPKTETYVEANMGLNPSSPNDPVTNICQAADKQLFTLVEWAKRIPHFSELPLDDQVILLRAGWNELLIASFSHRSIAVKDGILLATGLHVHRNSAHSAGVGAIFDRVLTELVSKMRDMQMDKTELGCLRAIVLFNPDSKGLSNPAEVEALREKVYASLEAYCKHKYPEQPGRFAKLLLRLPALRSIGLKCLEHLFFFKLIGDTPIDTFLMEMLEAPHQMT
Sequence (P43354 328-598): as the sequence (P43354 328-598) above
assayInfo: Transactivation assay in Cos-7 cells, NURR-1-Gal4 / RXRα, luciferase reporter
details: Cos-7 cells, overnight incubation
Documented pEC50 across a set of compounds
pEC50 here: minus log base 10 of the concentration, concentration in moles per litre.

CC(C)(C)c1cccc(S(=O)(=O)n2c(Cc3ccc(C(=O)O)c(O)c3)cc3cc(C(F)(F)F)ccc32)c1
5.94

input: Which pEC50 value is on record for O=C(O)c1ccc(Cc2cc3cc(Cl)ccc3n2S(=O)(=O)c2ccc(-c3cccc(F)c3)cc2)cc1 ?
output: 6.93

input: What do you get for O=C(O)c1ccc(Cc2cc3cc(C(F)(F)F)ccc3n2S(=O)(=O)c2ccc(OC(F)F)c(Cl)c2)cc1 ?
output: 6.46

input: What do you get for CCc1ccc(S(=O)(=O)n2c(Cc3ccc(C(=O)O)cc3)cc3cc(C(F)(F)F)ccc32)cc1 ?
output: 6.75

input: What do you get for CC(C)(C)c1cccc(S(=O)(=O)n2c(Cc3ccc(CNS(C)(=O)=O)cc3)cc3cc(C(F)(F)F)ccc32)c1 ?
output: 6.66

input: What do you get for CC(C)(C)c1cccc(S(=O)(=O)n2c(Cc3ccc(C(=O)O)cc3F)cc3cc(C(F)(F)F)ccc32)c1 ?
output: 7.55

* * *

targetSystem: hNurr1_RXRαFL (NURR1/RXRα heterodimer) (Homo sapiens, UniProt P19793+P43354)
assayInfo: Transactivation assay in Cos-7 cells, NURR-1-Gal4 / RXRα, luciferase reporter
details: Cos-7 cells, overnight incubation
property: log10(EC50) (log10 of the value in nM)
Short version: log10 scale, EC50, nM.

// below: answered molecules
CC(C)(C)c1cccc(S(=O)(=O)n2c(Cc3cc(C(=O)O)c(F)cc3Cl)cc3cc(C(F)(F)F)ccc32)c1
1.93
O=C(O)c1ccc(Cc2cc3cc(Cl)ccc3n2S(=O)(=O)c2ccc(-c3ccccc3)cc2)cc1
2.63
O=C(O)c1ccc(Cc2cc3cc(Cl)ccc3n2S(=O)(=O)c2cccc(C(F)(F)F)c2)cc1
2.52
Cc1cc(C)n(-c2ccc(S(=O)(=O)n3c(Cc4ccc(C(=O)O)cc4)cc4cc(C(F)(F)F)ccc43)cc2)n1
2.78
COc1ccc(S(=O)(=O)n2c(Cc3ccc(C(=O)O)cc3)cc3cc(Cl)ccc32)cc1
3.06
CC(C)(C)c1cccc(S(=O)(=O)n2c(Cc3ccc(-c4n[nH]c(=O)o4)cc3)cc3cc(C(F)(F)F)ccc32)c1
2.67

input: Which log10(EC50) value is on record for CC1(C)CCc2ccc(S(=O)(=O)n3c(Cc4ccc(C(=O)O)cc4)cc4cc(Cl)ccc43)cc2O1 ?
output: 2.16

input: What do you get for CC(C)c1cccc(S(=O)(=O)n2c(Cc3ccc(C(=O)O)cc3)cc3cc(C(F)(F)F)ccc32)c1 [Example 32] ?
output: 2.01

input: What do you get for C=C(c1ccc(C(=O)O)cc1)c1cc2cc(Cl)ccc2n1S(=O)(=O)c1ccc(C(C)C)cc1 ?
output: 2.56

input: What do you get for COc1ccc(Cc2cc3cc(C(F)(F)F)ccc3n2S(=O)(=O)c2cccc(C(C)(C)C)c2)cc1C(=O)O ?
output: 1.28

input: What do you get for O=C(O)c1ccc(Cc2cc3cc(Cl)ccc3n2S(=O)(=O)c2ccc3c(c2)OCCO3)cc1 ?
output: 2.43

input: What do you get for CC(C)(C)c1cccc(S(=O)(=O)n2c(Cc3ccc(C(=O)O)cc3)cc3ccccc32)c1 ?
output: 2.80
